Every entry's value here was drawn from PubChem BioAssay (NCI).

System: NCI-H522 lung
Assay: NCI-60 one-dose screen, 48 h
Details: 10 µM unless noted
About 83,000 compounds went through this panel and 20% of them were active in at least one assay; those are over-represented in the sample as a whole. Calls of active or inactive are those of the source. The calls were made as follows: active = growth percent below 10; inactive = the rest.
Return exactly one item of yes = active, no = inactive

Prompt: I would be grateful if you could indicate the recorded call for COc1ccc(NC(=O)Nc2ccc(-c3ccc(OC)c(OC)c3)nc2C)cc1 .
Response: no

Prompt: Follow-up item: CN(C)c1ccc(/C=c2\s/c(=C\C(=O)C(C)(C)C)[nH]c2=O)cc1
Response: no

Prompt: Entry to check: O=C(/C=C/c1ccccc1)Oc1ccc(/C=C/c2cc(OC(=O)/C=C/c3ccccc3)cc(OC(=O)/C=C/c3ccccc3)c2)cc1
Response: no
